Assay: compound effects on multiple myeloma cell viability – MM1S, calcein-AM fluorescence, 48 h, basal, profiling panel (AID 1165); note: test concentration not given here
Conditions: higher = more signal
Use 1 when the recorded z-score is no lower than -2; use 0 when it is lower.

# compound, class_name
data = [
    ("CN1C(=O)C2C=CC(C(O)C3=C[C@H]4C[C@@H](C3)C4(C)C)N(Nc3ccc([N+](=O)[O-])cc3[N+](=O)[O-])C2C1=O (stereo partly specified)", 1),
    ("COc1ccc([Si](C)(C)[C@H]2[C@H](CC(=O)N3CCC[C@H]3CO)O[C@@]3(C(=O)N(c4ccccc4)c4ccccc43)[C@@H]2C)cc1", 1),
    ("Cc1ccc(N2C(=O)c3ccccc3[C@](C)(C(=O)NCCN3CCOCC3)[C@@H]2c2ccc(CO)cc2)nc1", 1),
    ("COc1ccc(C#Cc2ccc3c(c2)[C@]2(C(=O)N3)[C@H](c3ccc(OCCO)cc3)N3[C@H](c4ccccc4)[C@H](c4ccccc4)OC(=O)[C@H]3[C@@H]2C(=O)Nc2nc3ccccc3s2)cc1", 1),
    ("C=CCN1C(=O)[C@]2(COC(c3ccc(OCCCO)cc3)=N2)Cc2ccccc21", 1),
    ("C=C(COC)/C(=C/C[C@H](OC(C)=O)c1ccccc1OCCO)c1cnc2ccccc2c1", 0),
    ("COc1c(C)cc(-c2cc3c(c(-c4ccccc4)n2)[Si](C(C)C)(C(C)C)O[C@H]3c2ccccc2)cc1C", 1),
    ("[N-]=[N+]=NCc1ccccc1C[C@]1(C(=O)NCc2ccccc2)COC(c2ccc(OCCCO)cc2)=N1", 0),
    ("C=CCOC(=O)[C@@H]1[C@H]2C(=O)O[C@H](c3ccccc3)[C@H](c3ccccc3)N2[C@H](c2ccc(OCCOC(=O)[C@H]3C[C@H]4C(=O)N[C@@H](CCCC[N+](C)(C)C)C(=O)N4[C@H]3c3cccc(OCCO)c3)cc2)[C@@]12C(=O)Nc1ccc(I)cc12", 1),
    ("CCOC(=O)C1=CC[C@@H](c2ccccc2)N(S(=O)(=O)c2ccc(C)cc2)[C@H]1c1ccc(C#N)cc1", 1),
    ("O=S(=O)(NCCCO)c1ccc(Br)cc1", 1),
    ("O=[N+]([O-])c1ccc(C[n+]2ccc(CCCO)cc2)o1", 1),
    ("COC(=O)[C@@]1(Cc2ccc(OC)cc2)[C@H]2c3cc(C(=O)N(C)C)n(CCSCCO)c3C[C@H]2CN1C(=O)c1ccccc1", 0),
    ("O=c1cccc(-c2ccccc2)o1", 1),
    ("C=C(C(=O)CC[C@@H](OC(=O)c1cccnc1)c1ccc(OCCO)cc1)C(C)C", 0),
    ("C=C(C)[C@@H]1CC=C(C(O)C2C=CC3C(=O)N(Cc4ccccc4)C(=O)C3N2n2cnnc2)CC1 (stereo partly specified)", 1),
    ("Cc1ccc(S[C@]2(C(=O)NCc3ccccc3)CC(=O)N(Cc3cc(C(F)(F)F)cc(C(F)(F)F)c3)[C@@H]2c2ccc(CO)cc2)cc1", 1),
    ("COc1ccc([Si](C)(C)[C@@H]2[C@@H](CCO)O[C@]3(C(=O)N(Cc4ccc(N5C(=O)c6cccc7cccc5c67)cc4)c4ccccc43)[C@H]2C)cc1", 1),
    ("O=c1cccc(-c2cccc3ccccc23)o1", 1),
    ("COc1ccc(C(=O)Nc2cccc(CN3C(=O)[C@@]4(O[C@@H](CCn5cc([C@H](O)c6ccccc6)nn5)[C@H]([Si](C)(C)c5ccc(OC)cc5)[C@H]4C)c4ccccc43)c2)cc1", 0),
    ("C=CCN1Cc2ccccc2C[C@@]2(COC(c3ccc(OCCCO)cc3)=N2)C1=O", 0),
    ("O=C1C2C=CC(C(O)c3ccc(-c4ccccc4)s3)N(Nc3ccccc3F)C2C(=O)N1c1ccccc1 (stereo unspecified)", 1),
    ("CC1(C)C(=O)C(c2ccccc2)=C2CN3C(=O)N(CCc4ccccc4)C(=O)C3(Cc3ccccc3)C=C21 (stereo unspecified)", 1),
    ("CN(C)CCCCNC(=O)[C@@H]1C[C@@H]2C(=O)N[C@@H](CCCCN)C(=O)N2[C@@H]1c1cccc(OCCO)c1", 1),
    ("C=CC[C@@]1(C(=O)OC)N=C(c2ccc(OCCCO)cc2)O[C@@H]1c1ccccc1CN=[N+]=[N-]", 0),
]
